Source listed as ChEMBL document CHEMBL3045793.

Tested on: THP-1
procedureDetails: Anti-inflammatory activity in Homo sapiens (human) THP1 cells assessed as inhibition of LPS-induced TNF-alpha production preincubated at 10 uM for 30 min before LPS treatment measured after 24 hr by ELISA
Format: functional
metricName: inhibition at 10 µM

Assign inhibition at 10 µM to the following record: CCOC(=O)C1=C(C)NC(=S)NC1c1ccc(NC(=S)Nc2ccc(C(F)(F)F)cc2Cl)cc1 (centres undefined)
55%

Return value of inhibition at 10 µM for input CCOC(=O)C1=C(C)NC(=S)NC1c1ccc([N+](=O)[O-])cc1 (centres undefined) , no commentary.
0%

Query inhibition at 10 µM for CCOC(=O)C1=C(C)NC(=S)NC1c1ccc(NC(=S)Nc2ccccc2OC(F)(F)F)cc1 (centres undefined)
27%

In one line, give reported inhibition at 10 µM of the entry CCOC(=O)C1=C(C)NC(=S)NC1c1ccc(NC(=S)Nc2c(C)cccc2Cl)cc1 (centres undefined) .
32%

Please report inhibition at 10 µM for the following compound: CCOC(=O)C1=C(C)NC(=S)NC1c1ccc(NC(=S)Nc2c(C)cccc2F)cc1 (centres undefined)
0%

With those in mind, consider the next compound.
Give recorded inhibition at 10 µM. CCOC(=O)C1=C(C)NC(=S)NC1c1ccc(NC(=S)Nc2ccccc2F)cc1 (centres undefined)
0%
